# target: UniProtKB O75469
# Format: cell-based
# protocol.conditions: EC50, CYP3A4 promoter reporter, stable cell line, HepG2-hPXR-CYP3A4-Luc cells (liver), 24 h treatment
pEC50: −log10 of the molar value.
observable: pEC50

The reported value for O=C(/C=C/C=C/c1ccc2c(c1)OCO2)N1CCCCC1 in terms of pEC50 is ~5.19

----------
# target: hPXR-LBD (Homo sapiens)
# Sequence (O75469 146-433 limits assumed): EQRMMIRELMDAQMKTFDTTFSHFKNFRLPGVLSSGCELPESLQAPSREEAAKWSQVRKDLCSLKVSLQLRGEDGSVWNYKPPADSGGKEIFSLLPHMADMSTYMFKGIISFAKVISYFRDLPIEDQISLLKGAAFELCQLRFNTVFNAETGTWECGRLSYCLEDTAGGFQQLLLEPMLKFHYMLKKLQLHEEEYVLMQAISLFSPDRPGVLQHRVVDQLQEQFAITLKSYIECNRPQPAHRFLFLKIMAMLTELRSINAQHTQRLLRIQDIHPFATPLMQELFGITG
# protocol: LanthaScreen TR-FRET PXR competitive ligand-binding assay
observable: IC50

The reported value for O=C(/C=C/C=C/c1ccc2c(c1)OCO2)N1CCCCC1 in terms of IC50 is > 2500 nM
